Give measured max response for each item. Keep answers brief.
Assay: qHTS assay for small molecule agonists of retinoid X receptor alpha signaling (AID 588544)
Settings: HEK293T RXRa-UAS-bla, beta-lactamase reporter, 18 h; 530 nm emission
Records with an inconclusive call do not appear.
Provide only the numeric value, understood in %.

**Q:** Could you tell me which max response is on file for OC1CCC(C2CCCCC2)CC1 (configuration not stated) ?
**A:** -2.23

**Q:** Could you tell me which max response is on file for O=C(O)c1cc2ccccc2cc1O ?
**A:** 18.1

**Q:** Could you tell me which max response is on file for C=C[Si](C)(C)O[Si](C)(C)C=C ?
**A:** 11.5

**Q:** Could you tell me which max response is on file for Cc1nn(C)c(Oc2ccccc2)c1/C=N/OCc1ccc(C(=O)OC(C)(C)C)cc1 ?
**A:** -10.3

**Q:** Could you tell me which max response is on file for C=C(C)C(=O)OCCCCCCCCCCCC ?
**A:** -11.6

**Q:** Could you tell me which max response is on file for CC(C)CCCCCOC(=O)CS ?
**A:** -0.354

**Q:** Could you tell me which max response is on file for c1ccc2cc3c(ccc4ccccc43)cc2c1 ?
**A:** 4.49

---

Target: Cytochrome P450 3A4 (Homo sapiens) (UniProt P08684)
Sequence (P08684 whole entry, looked up): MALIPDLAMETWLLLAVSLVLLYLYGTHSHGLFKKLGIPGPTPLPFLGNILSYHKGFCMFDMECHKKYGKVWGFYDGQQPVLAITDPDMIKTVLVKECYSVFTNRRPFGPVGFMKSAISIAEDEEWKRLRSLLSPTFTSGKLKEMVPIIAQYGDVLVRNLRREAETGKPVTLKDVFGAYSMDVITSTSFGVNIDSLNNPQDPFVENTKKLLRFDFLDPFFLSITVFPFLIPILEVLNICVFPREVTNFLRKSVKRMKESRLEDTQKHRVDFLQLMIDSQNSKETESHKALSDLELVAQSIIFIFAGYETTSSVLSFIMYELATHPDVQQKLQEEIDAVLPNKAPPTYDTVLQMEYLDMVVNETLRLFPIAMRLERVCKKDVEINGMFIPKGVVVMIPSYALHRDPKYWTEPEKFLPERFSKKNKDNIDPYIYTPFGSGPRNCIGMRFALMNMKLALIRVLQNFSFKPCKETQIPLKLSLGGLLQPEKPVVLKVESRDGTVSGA
Assay: qHTS Assay for Inhibitors and Substrates of Cytochrome P450 3A4 (AID 884); note: nearly all actives have a fitted effect of over 50% in size
Conditions: recombinant CYP3A4, Luciferin-PPXE luminescence; series mostly up to 57.1 µM
Records with an inconclusive call do not appear. Activity calls are given as the source filed them. The call rests on the fitted dose curve; in most records, active means well fitted inhibition curve with a large enough effect; inconclusive means small, poorly fitted or top-dose-only effect; inactive means no such curve, though single readings can be large or run the other way.
Pick one: Y = active, N = inactive

**Q:** Which outcome was entered for the compound CCC1=C2CC[C@H]3C(=O)N(c4ccccc4)C(=O)[C@H]3[C@H]2[C@@]2(C)C(=O)N(Cc3ccccc3)C(=O)N2C1=O in this test?
**A:** N

**Q:** Which outcome was entered for the compound COc1ccc(O[C@H]2C=C[C@@H](c3ccccc3)O[C@H]2CO/N=C(/C)CCC(=O)OC[C@@H]2O[C@H](c3ccccc3)C=C[C@@H]2Oc2ccc(OC)cc2)cc1 in this test?
**A:** Y

**Q:** Which outcome was entered for the compound COC(=O)c1ccc(C(/C=C/[C@@H](C)C(=O)N[C@H](C)CO)NC(=O)OCc2ccccc2)cc1 (stereo not given in full) in this test?
**A:** Y

**Q:** Which outcome was entered for the compound C[C@]1(C(=O)NCCN2CCOCC2)C=C[C@@H](Cc2ccccc2)N1C(=O)c1ccccc1 in this test?
**A:** Y

**Q:** Which outcome was entered for the compound CCCCCCN(C(=O)CCCCCN1C(=O)NC(c2ccc(C(C)(C)C)cc2)C(C(=O)OCc2ccccc2)=C1C)C(C(=O)NCCCC)c1ccc(OCC(=O)OC)c(C(=O)OC)c1 (stereo not given) in this test?
**A:** Y

**Q:** Which outcome was entered for the compound COc1cccc([C@H]2Oc3ccc(OC)cc3/C(=N\O[C@@H]3O[C@H](COC(C)=O)[C@H](OC(C)=O)[C@H](OC(C)=O)[C@H]3OC(C)=O)[C@@H]2O)c1 in this test?
**A:** Y

**Q:** Which outcome was entered for the compound CCCCCCN(C(=O)CCCCCN1C(=O)NC(C2CC2)C(C(=O)OCc2ccccc2)=C1C)C(C(=O)NCCCC)c1ccc(OCC(=O)OC)c(C(=O)OC)c1 (stereo not given) in this test?
**A:** Y

**Q:** Which outcome was entered for the compound CC(Cc1ccccc1)C(=O)N[C@@H](CO)Cc1ccccc1 (stereo not given in full) in this test?
**A:** Y

**Q:** Which outcome was entered for the compound CCCCNC(=O)C(c1ccc(OCC(=O)OC)c(C(=O)OC)c1)N(Cc1ccccn1)C(=O)CCCCCN1C(=O)NC(c2ccc(-c3ccccc3)cc2)C(C(=O)OCc2ccccc2)=C1C (stereo not given) in this test?
**A:** Y

**Q:** Which outcome was entered for the compound CCCCCCN(C(=O)CCCCCN1C(=O)NC(c2ccc(Cl)cc2)C(C(=O)OCc2ccccc2)=C1C)C(C(=O)NCCCC)c1ccc(OCC(=O)OC)c(C(=O)OC)c1 (stereo not given) in this test?
**A:** Y

**Q:** Which outcome was entered for the compound COC(=O)c1ccc(C(NC(=O)OCc2ccccc2)/C(C)=C/[C@@H](C)C(=O)NCc2cc(C)on2)cc1 (stereo not given in full) in this test?
**A:** Y

**Q:** Which outcome was entered for the compound COc1ccc(OC2C=CC(C#Cc3ccccc3)OC2CO)cc1 (stereo not given) in this test?
**A:** Y

**Q:** Which outcome was entered for the compound COc1ccc(O[C@H]2C=C[C@@H](c3ccccc3)O[C@H]2COC(=O)CC/C(C)=N\O[C@@H](C)c2cc(-c3c(C)cc(C)cc3C)no2)cc1 in this test?
**A:** Y

**Q:** Which outcome was entered for the compound COC(=O)c1ccc(C(NC(=O)OCc2ccccc2)/C(=C/[C@@H](C)C(=O)NCc2cc(C)n(C)n2)c2cccnc2)cc1 (stereo not given in full) in this test?
**A:** N

**Q:** Which outcome was entered for the compound CCCCCCCCCCCCCCCC(=O)NCCc1ccc(O)c(O)c1 in this test?
**A:** N

---

System: AA1029
Assay: qHTS profiling for inhibitors of Plasmodium falciparum proliferation (AID 504749); note: nearly all actives have a fitted effect of over 60% in size
Details: P. falciparum in erythrocytes, SYBR Green DNA, 72 h; series mostly up to 28.7 µM
Records with an inconclusive call do not appear. Active and inactive are the calls of the source. The call rests on the fitted dose curve; in most records, active means well fitted inhibition curve with a large enough effect; inconclusive means small, poorly fitted or top-dose-only effect; inactive means flat fitted curve, though single readings scatter. Numbered stars: 1 amine (or outer) side, 2 acyl side, 3 side chain; on linkers, the order of the positions; unused ones are H or OH. Bridge positions count the residues as written; N and C are the ends. Square brackets hold non-standard residues; d marks the D form. Peptide text beside a SMILES is read from it. * marks the point of attachment. ξ: configuration not given here. ΔAla(Z-3-ureido) = NC(=O)N/C=C(\N)C(=O)O; X2 = NC1=NC(O)CC(C(N[*:1])C(=O)[*:2])N1; ξβ3hOrn = NCCCC(N)CC(=O)*; Orn = NCCC[CH](N)C(=O)O; Dap = NC[CH](N)C(=O)O
Pick one: y = active, n = inactive

**Q:** Which outcome was entered for the compound O=C(O)c1ccccc1-c1c2cc(Br)c(=O)c(Br)c-2oc2c(Br)c(O)c(Br)cc12 in this test?
**A:** n

**Q:** Which outcome was entered for the compound CC1(C)C(/C=C/C=C/C=C/C=C2\N(CCCCS(=O)(=O)O)c3ccc4ccccc4c3C2(C)C)=[N+](CCCCS(=O)(=O)[O-])c2ccc3ccccc3c21 in this test?
**A:** n

**Q:** Which outcome was entered for the compound C=CC1=C(C(=O)O)N2C(=O)[C@@H](NC(=O)C(N=O)c3csc(N)n3)[C@H]2SC1 (stereo not given in full) in this test?
**A:** n

**Q:** Which outcome was entered for the compound CC(=O)OCC(=O)[C@@]1(O)CCC2C3CCC4=CC(=O)CC[C@]4(C)C3=CC[C@@]21C (stereo not given in full) in this test?
**A:** n

**Q:** Which outcome was entered for the compound NCCCC(N)CC(=O)NC1CNC(=O)C(C2CC(O)N=C(N)N2)NC(=O)/C(=C/NC(N)=O)NC(=O)C(CO)NC(=O)C(CO)NC1=O (stereo not drawn) (ξβ3hOrn-[Dap]SS[ΔAla(Z-3-ureido)][X2]; lactam 1-C; configuration not given here) in this test?
**A:** n

**Q:** Which outcome was entered for the compound CC(C)CC(NC(=O)C(COC(C)(C)C)NC(=O)C(Cc1ccc(O)cc1)NC(=O)C(CO)NC(=O)C(Cc1c[nH]c2ccccc12)NC(=O)C(Cc1cnc[nH]1)NC(=O)C1CCC(=O)N1)C(=O)NC(CCCN=C(N)N)C(=O)N1CCCC1C(=O)NNC(N)=O (stereo not given) in this test?
**A:** n

**Q:** Which outcome was entered for the compound CNCC(=O)NC(CCCN=C(N)N)C(=O)NC(C(=O)NC(Cc1ccc(O)cc1)C(=O)NC(C(=O)NC(Cc1cnc[nH]1)C(=O)N1CCCC1C(=O)NC(C)C(=O)O)C(C)C)C(C)C (stereo not given) in this test?
**A:** n

**Q:** Which outcome was entered for the compound CC(=O)OCC1=C(C(=O)O)N2C(=O)C(NC(=O)Cc3ccccc3)C2SC1 (stereo not given) in this test?
**A:** n

**Q:** Which outcome was entered for the compound CC(C)CC1NC(=O)C(CCCN)NC(=O)C(C(C)C)NC(=O)C2CCCN2C(=O)C(Cc2ccccc2)NC(=O)C(CC(C)C)NC(=O)C(CCCN)NC(=O)C(C(C)C)NC(=O)C2CCCN2C(=O)C(Cc2ccccc2)NC1=O (stereo not given) (cyclo(FPV[Orn]LFPV[Orn]L); configuration not given here) in this test?
**A:** y

**Q:** Which outcome was entered for the compound CCC(C)C1NC(=O)C(Cc2ccc(O)cc2)NC(=O)C(N)CSSCC(C(=O)N2CCCC2C(=O)NC(CC(C)C)C(=O)NCC(N)=O)NC(=O)C(CC(N)=O)NC(=O)C(CCC(N)=O)NC1=O (stereo not given) in this test?
**A:** n

**Q:** Which outcome was entered for the compound CCOC(=O)C(CS)NCCN[C@@H](CS)C(=O)OCC (stereo not given in full) in this test?
**A:** n

**Q:** Which outcome was entered for the compound COc1ccc(-c2nc3ccc(C4=C(C)CC(=O)NN4)cc3[nH]2)cc1 in this test?
**A:** n

**Q:** Which outcome was entered for the compound NC(=O)CCC1NC(=O)C(Cc2ccccc2)NC(=O)C(Cc2ccc(O)cc2)NC(=O)CCSSCC(C(=O)N2CCCC2C(=O)NC(CCCN=C(N)N)C(=O)NCC(N)=O)NC(=O)C(CC(N)=O)NC1=O (stereo not given) in this test?
**A:** n

**Q:** Which outcome was entered for the compound O=C(OCC1OC(OC(=O)c2cc(O)c(O)c(OC(=O)c3cc(O)c(O)c(O)c3)c2)[C@@H](OC(=O)c2cc(O)c(O)c(OC(=O)c3cc(O)c(O)c(O)c3)c2)C(OC(=O)c2cc(O)c(O)c(OC(=O)c3cc(O)c(O)c(O)c3)c2)C1OC(=O)c1cc(O)c(O)c(OC(=O)c2cc(O)c(O)c(O)c2)c1)c1cc(O)c(O)c(OC(=O)c2cc(O)c(O)c(O)c2)c1 (stereo not given in full) in this test?
**A:** y

**Q:** Which outcome was entered for the compound CCC1NC(=O)C(NC(=O)c2ncccc2O)C(C)OC(=O)C(c2ccccc2)NC(=O)C2CC(=O)CCN2C(=O)C(Cc2ccccc2)N(C)C(=O)C2CCCN2C1=O (stereo not given) in this test?
**A:** n
